Hey, just so you know, these numbers are from ChEMBL document CHEMBL4483862.

System: Plasmodium berghei
Experiment: Luciferase/luciferin-expressing antifolate-resistant parasites were used to infect a culture of HepG2 cells that were pre-incubated with compounds. Infected hepatocytes emit light due to the luciferase reaction. Assay results are presented as the percent inhibition of light emission compared to control. […]
Type: functional
Conditions: sporozoite, HEPG2TOX_HILL_SLOPE 2.22, HEPG2TOX_R_SQUARED 0.565, PBLUC_HILL_SLOPE 4.18, PBLUC_R_SQUARED 0.45, read-out: LUCIFERASE INFECTION ASSAY - IC50
readout: pIC50
Please keep in mind that pIC50 is minus log10 of the molar concentration; only the number is needed.

In: Kindly state the measured pIC50 obtained for O=C(Nc1nc2ccccn2c1C(=O)NC1CCCC1)c1cc(F)ccc1F with Plasmodium berghei.
Out: 5.41

====

Tested on: Plasmodium berghei
Experiment: Luciferase/luciferin-expressing antifolate-resistant parasites were used to infect a culture of HepG2 cells that were pre-incubated with compounds. Infected hepatocytes emit light due to the luciferase reaction. Assay results are presented as the percent inhibition of light emission compared to control. […]
Assay type: functional
Settings: sporozoite, read-out: LUCIFERASE INFECTION ASSAY - IC90
Listed next: entries and their corresponding IC90.
Field format: number, assumed µM, no unit text.

Study these solved cases before continuing.
entry_smiles=CS(=O)(=O)c1ccc(-c2cnc3ccc(Cc4ccc(F)cc4)nn23)cc1 tested_target="Plasmodium berghei" readout=IC90 reading=3.4
entry_smiles=FC(F)(F)c1ccc(NCCNc2ccc(C(F)(F)F)cn2)nc1 tested_target="Plasmodium berghei" readout=IC90 reading=2.55
entry_smiles=CNC(=O)c1cccc(-c2ccc3ncc(-c4ccc(NC(C)=O)cc4)n3n2)c1 tested_target="Plasmodium berghei" readout=IC90 reading=2.63
entry_smiles=COc1ccc(-n2nc(C)c3c(=O)cc(C(C)(C)C)[nH]c32)cc1 tested_target="Plasmodium berghei" readout=IC90 reading=5.81

Next up:
In: Item under review: CNc1nc2cnc(Nc3cccc(Cl)c3)cc2n1-c1cc(OC)c(OC)c(OC)c1 . Reported IC90?
Out: 4.49

====

Test system: Plasmodium berghei
Assay: Luciferase/luciferin-expressing antifolate-resistant parasites were used to infect a culture of HepG2 cells that were pre-incubated with compounds. Infected hepatocytes emit light due to the luciferase reaction. Assay results are presented as the percent inhibition of light emission compared to control. […]
Type: functional
Details: sporozoite, read-out: LUCIFERASE INFECTION ASSAY - IC90
readout: IC90

Study these solved cases before continuing.
compound=COc1ccc(-c2nn(-c3ccccc3)cc2C(=O)Nc2cc(C(F)(F)F)ccc2N2CCCCC2)cc1 reading="> 10 µM"
compound="CC(C)[C@H](NC(=O)c1ccccc1Cl)C(=O)OC(C(=O)Nc1cccc(C(F)(F)F)c1)c1ccccc1 (stereo not given in full)" reading="> 10 µM"
compound=CNS(=O)(=O)c1ccc(CNc2ncnc3cc(-c4ccc(OC)cc4)sc23)s1 reading="2.1 µM"
compound=CN(C)CCNc1nc(-c2ccco2)c2c(c1C#N)CCCC2 reading="> 10.6 µM"

Next up:
In: Kindly state the measured IC90 obtained for c1csc(SCc2ccc3nonc3c2)c1 with Plasmodium berghei.
Out: > 13.3 µM

====

System: Plasmodium berghei
Assay: Luciferase/luciferin-expressing antifolate-resistant parasites were used to infect a culture of HepG2 cells that were pre-incubated with compounds. Infected hepatocytes emit light due to the luciferase reaction. Assay results are presented as the percent inhibition of light emission compared to control. […]
Type: functional
Conditions: sporozoite, read-out: LUCIFERASE INFECTION ASSAY - IC50
readout: IC50

Study these solved cases before continuing.
compound="CCOC(=O)C1=C(CN2CCN(C(c3ccc(F)cc3)c3ccc(F)cc3)CC2)NC(=O)NC1CC (stereo unspecified)" readout=IC50 reading="> 10 µM"
compound="CCC(OC(=O)c1cc2ccccc2[nH]1)C(=O)Nc1cc(C)on1 (stereo unspecified)" readout=IC50 reading="> 10 µM"
compound=O=C(Nc1nc2c(s1)CCCC2)c1cc(F)c(F)c(F)c1F readout=IC50 reading="0.081 µM"
compound=CCOC(=O)COc1ccccc1/C=C(/C#N)S(=O)(=O)c1ccccc1 readout=IC50 reading="> 8.89 µM"
compound=CCN(CCC#N)c1ccc(/C=C2/C(=O)Nc3cc(Cl)ccc32)c(C)c1 readout=IC50 reading="> 10 µM"

In: Item under review: CNc1nc2cnc(Nc3cc(OC)cc(C(F)(F)F)c3)cc2n1Cc1ccco1 . Reported IC50?
Out: > 10 µM

In: Item under review: CCOC(=O)/C=C1\SCC(=O)N1CCOC(=O)c1ccccc1 . Reported IC50?
Out: > 10 µM

In: Item under review: CCOc1cccc(C(=O)Nc2c(C)cc(Br)cc2C)c1 . Reported IC50?
Out: > 9.48 µM

In: Item under review: CC1=C(C(=O)c2ccc(Cl)cc2)C(c2ccc(C(F)(F)F)cc2)NC(=O)N1 (stereo unspecified) . Reported IC50?
Out: > 10 µM

In: Item under review: COc1ccc(C(NCc2cccc3ccccc23)C2CC2)cc1 (stereo unspecified) . Reported IC50?
Out: > 10 µM

In: Item under review: CSc1sc(C(=O)N2CCOCC2)c2c1S(=O)(=O)N(C)c1ccccc1-2 . Reported IC50?
Out: > 8.04 µM

In: Item under review: Cc1cc(-c2cc(C(=O)NCc3ccc(Cn4cncn4)cc3)c3cnn(C(C)C)c3n2)c(C)s1 . Reported IC50?
Out: > 10 µM

In: Item under review: CCOC(=O)c1sc(S(=O)(=O)Cc2ccccc2)c2c1CC(C)(C)CC2=O . Reported IC50?
Out: > 8.12 µM
